# Tested on: PRMT1 (protein arginine N-methyltransferase 1)
# Protocol Description: small molecules binding arginine methyltransferase PRMT1 – biochemical, small-molecule microarray, 635 nm fluorescence, primary screen (AID 1088);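 note: binding of Prmt1 protein to compounds spotted on small-molecule microarray slides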
# Cond: higher = more signal
Each entry below carries its recorded composite z-score.

# Molecule, composite z-score
data = [
    ("CC(C)N1C(=O)c2ccccc2[C@](C)(C(=O)NCC(F)(F)F)[C@@H]1c1ccc(CO)cc1", -0.42),
    ("Cc1ccc(S[C@]2(C(=O)NCCCN(C)C)CC(=O)N(Cc3ccccc3C(F)(F)F)[C@@H]2c2ccc(CO)cc2I)cc1", 0.349),
    ("CCCC=C(CCC)[C@@H](NC(=O)OCC(C)C)c1ccc(C(=O)OC)cc1", 0.586),
    ("C=C(COC)/C(=C/C[C@@H](OC(C)=O)c1ccccc1OCCO)c1cnc2ccccc2c1", 1.56),
    ("C[N+](C)(C)CCCC[C@@H]1NC(=O)[C@@H]2C[C@H](C(=O)NCc3ccc(F)cc3)[C@H](c3ccc(O)cc3)N2C1=O", 0.116),
    ("COC(=O)C(CC#Cc1ccc2c(c1)[C@]1(C(=O)N2)[C@H](c2ccccc2OCCO)N2[C@H](c3ccccc3)[C@H](c3ccccc3)OC(=O)[C@H]2[C@@H]1C(=O)N1CCc2cc(OC)c(OC)cc2C1)C(=O)OC", 1.53),
    ("COCCOC(=O)N1C(=O)[C@@]2(c3cc(C#CCCO)ccc31)[C@H](c1ccc(OCCO)cc1)N1[C@H](c3ccccc3)[C@H](c3ccccc3)OC(=O)[C@H]1[C@@H]2C(=O)N1CCCCCCC1", 1.54),
    ("CC1CC/C=C\\[C@H]2OC34C=CCN(Cn5nnc6ccccc65)C(=O)[C@H]3N(CCCCCCO)C(=O)[C@@H]4C2C(=O)O1 (some centres undefined)", -0.526),
    ("CC(C)NC(=O)[C@@H]1c2ccccc2C(=O)N(Cc2ccc(OC(F)(F)F)cc2)[C@H]1c1ccc(CO)cc1", 1.54),
    ("CCCCC(O)C1C=CC2C(=O)N(c3ccccc3)C(=O)C2N1Nc1ccc(C#N)cc1 (centres undefined)", 0.771),
    ("O=C(O)[C@H](Cc1ccccc1)n1cc(C2(O)CCCCC2)nn1", 0.499),
    ("CC(C)(C)OC(=O)CC[C@]1(C(=O)NCC(O)CO)N=C(c2ccc(OCCCO)cc2)O[C@H]1c1ccccc1N=[N+]=[N-] (some centres undefined)", 0.98),
    ("CO[C@H]1O[C@H](CO)[C@@H](OC(=O)Nc2ccc3c(c2)OCO3)[C@H](OC(=O)Nc2ccccc2-c2ccccc2)[C@H]1OC(=O)Nc1ccccc1-c1ccccc1", 1.54),
    ("COCCCNC(=O)[C@@]1(Sc2ccc(C)cc2)CC(=O)N(Cc2ccccc2C(F)(F)F)[C@@H]1c1ccc(CO)cc1I", 0.242),
    ("C=C(C)[C@@H]1CC=C(C(O)C2C=CC3C(=O)N(c4ccccc4)C(=O)C3N2Nc2ccc([N+](=O)[O-])cc2)CC1 (some centres undefined)", 1.55),
    ("Cc1ccccc1C(O)C1C=CC2C(=O)N(c3ccccc3)C(=O)C2N1Nc1ccccc1 (centres undefined)", 1.53),
    ("CCCN1C(=O)[C@@]2(c3ccc([N+](=O)[O-])cc3)CC(=O)N(CC34CC5CC(CC(C5)C3)C4)[C@@H]2c2ccc(CO)cc21", -0.247),
    ("[N-]=[N+]=Nc1ccccc1[C@@H]1OC(c2ccc(OCCCO)cc2)=N[C@]1(Cc1ccccc1)C(=O)NCCN1CCOCC1", 0.547),
    ("CC(=O)NCCCC[C@@H]1NC(=O)[C@H]2C[C@@H](C(=O)NCCCCCCNC(=O)CS)[C@@H](c3cccc(OCCO)c3)N2C1=O", 1.56),
    ("CCCCN1CC=CC23O[C@@H]4/C=C\\CCCOC(=O)C4[C@H]2C(=O)N(C(CO)C(C)C)[C@@H]3C1=O (some centres undefined)", -0.385),
    ("COC(=O)[C@]1(Cc2ccccc2)N=C(c2ccc(OCCCO)cc2)O[C@@H]1c1ccccc1CN=[N+]=[N-]", 1.56),
    ("C=C(COC)C(=O)CC[C@@H](OC(C)=O)c1ccccc1OCCO", 1.34),
    ("CCCCCC1=C2CNC(Cc3ccccc3)(C(=O)OC)C=C2C(C)C1=O (centres undefined)", -0.488),
    ("COCCOC(=O)N1C(=O)[C@@]2(c3cc(C#CCC(C(=O)OC)C(=O)OC)ccc31)[C@H](C(=O)Nc1nc3ccccc3s1)[C@H]1C(=O)O[C@H](c3ccccc3)[C@H](c3ccccc3)N1[C@@H]2c1ccc(O)cc1", 1.53),
    ("O=C1O[C@H](c2ccccc2)[C@H](c2ccccc2)N2[C@H]1[C@@H](C(=O)O)[C@]1(C(=O)Nc3ccc(C#CCCO)cc31)[C@H]2c1ccc(OCCO)cc1", 0.862),
    ("O=C(NCc1ccc(F)cc1)[C@H]1C[C@H]2C(=O)N3CCC[C@H]3C(=O)N2[C@H]1c1ccc(O)cc1", 0.0679),
    ("CCOC(=O)C[C@H]1[C@H](OC(=O)Cc2ccc3c(c2)OCO3)[C@@H](NC(=O)Cc2ccc(OC)cc2)c2cc(OCCCO)ccc2N1C(=O)Cc1ccc(OC)cc1", 0.433),
    ("COC(=O)[C@@]1(Cc2ccc(OC)cc2)[C@H]2c3cc(C(=O)N4CCCC4)n(Cc4c(CO)[nH]cc(C)c4=O)c3C[C@H]2CN1C(=O)c1ccccc1", 0.413),
    ("CC1CC/C=C\\[C@H]2OC34C=CCN(c5ccc6ccccc6c5)C(=O)[C@H]3N(C(C)CO)C(=O)[C@@H]4C2C(=O)O1 (some centres undefined)", 0.541),
]
